# System: Marburg virus (MARV)
# Assay Procedure: organism not typed
# Assay type: cell-based
# Test Conditions: Vero, 72 h, read-out: Percent viral inhibition MARV
Recorded Metric: inhibition at 1 µM (%)
Numeric only. Scale: %

Checklist item: inhibition at 1 µM tested on Marburg virus (MARV), entry CN1CCN(c2ncc(Oc3cc(CN4CC5CC(CC(=O)O)CC5C4)cc(-c4cc(Cl)cc(Cl)c4)n3)cn2)CC1 (stereo not shown) , value? 29.8

Checklist item: inhibition at 1 µM tested on Marburg virus (MARV), entry "CN1CCN(c2ncc(Oc3cc(CN4CCC(CC(N)=O)CC4)cc(-c4cc(Cl)cc(Cl)c4)n3)cn2)CC1" , value? 49.1

Checklist item: inhibition at 1 µM tested on Marburg virus (MARV), entry "CC(C)N1CCN(c2ncc(Oc3cc(CN4CCC(CC(=O)O)CC4)cc(-c4cc(Cl)cc(Cl)c4)n3)cn2)CC1" , value? 69.8

Checklist item: inhibition at 1 µM tested on Marburg virus (MARV), entry CC(=O)N[C@H]1[C@@H]2CCN(Cc3cc(Oc4cnc(N5CCN(CCC(C)C(=O)O)CC5)nc4)nc(-c4cc(Cl)cc(Cl)c4)c3)CC[C@@H]21 (stereo partly shown) , value? 53.2

###

Consider the following compounds; for each one, report its inhibition at 1 µM.
# Tested on: Chikungunya virus (CHIKV)
# Assay Procedure: microbe, parasite or virus in culture
# Assay type: cell-based
# Test Conditions: Chikungunya virus, Vero, 48 h, read-out: Percent viral inhibition CHKV
Numeric only. Scale: %

Would you kindly share the measured inhibition at 1 µM for "O=C(O)CC1CCN(Cc2cc(Oc3cnc(N4CCNC5(CC5)C4)nc3)nc(-c3cc(Cl)cc(Cl)c3)c2)CC1" ? 34.6

Would you kindly share the measured inhibition at 1 µM for "CNC(=O)NCC1CCN(Cc2cc(Oc3ccc(N4CCN(CCC(=O)O)CC4)nc3)nc(-c3cc(Cl)cc(Cl)c3)c2)CC1" ? 30.1

Would you kindly share the measured inhibition at 1 µM for "CC(=O)NCC1CCN(Cc2cc(Oc3ccc(N4CCN(CCC(=O)O)CC4)nc3)nc(-c3cc(F)cc(Br)c3)c2)CC1" ? 10.4

Would you kindly share the measured inhibition at 1 µM for "CC(=O)NCC1CCN(Cc2cc(Oc3cnc(N4CCN(CCCS(C)(=O)=O)CC4)nc3)nc(-c3cc(Cl)cc(Cl)c3)c2)CC1" ? 15

Would you kindly share the measured inhibition at 1 µM for CN1CCN(c2ncc(Oc3cc(CN4CCC(CC(=O)O)CC4)cc(-c4cc(Cl)cc(Cl)c4)n3)cn2)CC(O)C1 (centres unmarked) ? 26.7

Would you kindly share the measured inhibition at 1 µM for "CC(=O)NC(=O)NCC1CCN(Cc2cc(Oc3cnc(N4CCN(C)CC4)nc3)nc(-c3cc(Cl)cc(Cl)c3)c2)CC1" ? 0

Would you kindly share the measured inhibition at 1 µM for "CC(=O)NCC1CCN(Cc2cc(Oc3ccc(N4CCN(CCc5nnn[nH]5)CC4)nc3)nc(-c3cc(Cl)cc(Cl)c3)c2)CC1" ? 3.02

Would you kindly share the measured inhibition at 1 µM for CN1CCN(c2ncc(Oc3cc(CN4CC5CC(CC(=O)O)CC5C4)cc(-c4cc(Cl)cc(Cl)c4)n3)cn2)CC1 (centres unmarked) ? 23.6

Would you kindly share the measured inhibition at 1 µM for COC1CN(C)CCN(c2ncc(Oc3cc(CN4CCC(CC(=O)O)CC4)cc(-c4cc(Cl)cc(Cl)c4)n3)cn2)C1 (centres unmarked) ? 32.6

Would you kindly share the measured inhibition at 1 µM for "CNC(=O)NCC1CCN(Cc2cc(Oc3ccc(N4CCN(CCO)CC4)nc3)nc(-c3cc(Cl)cc(Cl)c3)c2)CC1" ? 3.24

Would you kindly share the measured inhibition at 1 µM for "CN1CCN(c2ncc(Oc3cc(CN4CCC(CNC(=O)NS(C)(=O)=O)CC4)cc(-c4cc(Cl)cc(Cl)c4)n3)cn2)CC1" ? 22.7

Would you kindly share the measured inhibition at 1 µM for "CC(=O)NCC1CCN(Cc2cc(Oc3cnc(N4CCNCC4)cn3)nc(-c3cc(Cl)cc(Cl)c3)c2)CC1" ? 7.33

Would you kindly share the measured inhibition at 1 µM for "NC1(CCO)CCN(c2ncc(Oc3cc(CN4CCC(CC(=O)O)CC4)cc(-c4cc(Cl)cc(Cl)c4)n3)cn2)CC1" ? 21.2

Would you kindly share the measured inhibition at 1 µM for "CN(C)C1CCN(c2ncc(Oc3cc(CN4CCC(CC(=O)O)CC4)cc(-c4cc(Cl)cc(Cl)c4)n3)cn2)CC1" ? 40.5
